# TESTED_ON: T1, Human GDF8 homodimer (mature human Growth and Differentiation Factor-8) (human, UniProt O14793 267-375)
# T1 construct: also called hGDF8; myostatin
# T1 sequence: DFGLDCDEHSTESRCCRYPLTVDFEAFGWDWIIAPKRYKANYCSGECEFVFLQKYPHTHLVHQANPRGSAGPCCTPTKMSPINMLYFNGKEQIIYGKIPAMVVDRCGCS
# EXPERIMENT_SUMMARY: SPR, antibody captured, 25 nM antigen
T1/2 values, listed per item

BINDER	T1/2 / min
19F2 (antibody, V domains shown) VH: QVQLVESGGGVVQPGRSLRLSCEASGFTFSSSGMHWVRQAPGKGLQWVAVISYDGNNKFYEDSVKGRLTISRDNSNNTLWLQMNSLRVEDTAVYYCAKSGGRVGAAFAYWGQGTLVTVSS VL: DIVNTQSPLSLPVTPGEPASISCRSSQSLLYGNGYNYLDWYLQKPGHSPQLLIYLGSNRGSGVPDRFSGSGSGTDFTLKISRVEAEDVGIYYCMQTLQTPFTFGPGTKMYIK	38
21-B9 (antibody, V domains shown) VH: QVQLVQSGPGLVKPSETLSLTCTVSGGSISNSNYYWGWIRQPPGKGLEWIGTTYYSGTTYYNPSLKSRVTISVDTSKNQFSLKLSSVTAADTAVYYCARDYYDSSGYYYNWFDPWGQGTTVTVSS VL: DIQLTQSPSSLSASVGDRVTITCRASQDIRNDLGWYQQKPGKAPKRLIYAASSLQSGVPSRFSGSGSGTEFSLTLSSLQPEDFATYFCLQHHIYPWTFGQGTKLEIKR	126
4B9 (antibody, V domains shown) VH: EVQLLESGGGLVQPGGSLRLSCAASGFTSITYAMSWVRQAPGKGLEWVSAISVSGTNTYYADSVKGRFTISRDKSKNMLYLQMNSLRAEDTAVYYCAKDLLHNWKYGTFDIWGQGTMVTVSS VL: EIVMTQSPATLSVSPGERATLSCRASQSVDSNLVWYQQKPGQVPRLLIYGASTRATGIPARFSGSGSGTEFTLTISSLQSEDFAVYYCQQYNKWPLTFGGGTKVEIK	55
